Origin of values: patent US9140688B2

Test system: elk sperm
Assay: Post thaw DNA fragmentation of elk sperm (Example 3)
Format: cell-based
Conditions: elk, 24 h
property-measured: Post Thaw DNA fragmentation Elk, Post Sort (%)
Provide the reading as a plain figure in %.

Bench note: what Post Thaw DNA fragmentation Elk, Post Sort did COc1cc(S(=O)(=O)O)c(C)cc1N=Nc1c(O)ccc2cc(S(=O)(=O)O)ccc12 [Red 40, reference compound] show?
0.3

###

System: X- and Y-chromosome bearing bovine sperm stained with Hoechst 33342
Test: Split quality: height of peak divided by height of valley (PV), flow cytometry of stained bovine sperm
Type: cell-based
Details: Ex 5; dye 25 μM; Hoechst 16 μL/2 mL
Quick reference: Height of Peak/Height of Valley of the listed items.

- compound: "O=C([O-])C1=NN(c2ccc(S(=O)(=O)[O-])cc2)C(=O)/C1=N/Nc1ccc(S(=O)(=O)[O-])cc1.[Na+].[Na+].[Na+]"
  Height of Peak/Height of Valley: 1.00
- compound: "O=S(=O)([O-])c1ccc(N=Nc2c(O)ccc3cc(S(=O)(=O)[O-])ccc23)cc1.[Na+].[Na+]"
  Height of Peak/Height of Valley: 1.13
- compound: "O=S1(=O)OC(c2ccc(O)cc2)(c2ccc(O)cc2)c2ccccc21"
  Height of Peak/Height of Valley: 1.00

Request the reported Height of Peak/Height of Valley associated with COc1cc(S(=O)(=O)O)c(C)cc1N=Nc1c(O)ccc2cc(S(=O)(=O)O)ccc12 [Red 40, reference compound]
1.00
